Recorded values, source paper PMC2574667.

Format: physicochemical
Conditions: phosphate buffer, pH 7.4, half-life pH 7.4, 0.1 M phosphate pH 7.4, 37 °C
Overview of reported half-life across a group of compounds:

Value of measured half-life for the entry CCN(CC)/[N+]([O-])=N/O[C@@H]1O[C@H](CO)[C@@H](O)[C@H](O)[C@H]1NC(C)=O [9a] : ~12 h

Record summary for CCN(CC)/[N+]([O-])=N/O[C@@H]1O[C@H](CO)[C@@H](O)[C@H](O)[C@H]1O [3a] : reported half-life = > 240 h

Further cases:
Just so you know, measured half-life for CCN(CC)/[N+]([O-])=N/O[C@H]1C[C@@H](O)[C@H](O)[C@@H](CO)O1 [11a] came out at ~12 h
